The measurements presented in this section are drawn from patent US4537717A.

Listed below: ED50 Streptococcus pyogenes Subcutaneous values for each entry.
System: Streptococcus pyogenes
Test: in vivo activity against experimental bacterial infection (ED50)
Settings: mice; two doses subcutaneously; dose protecting fifty percent of test animals
Numbers only; they are read as mg/kg × 2.

A selection of reference data follows.
Exercise: Name the recorded ED50 Streptococcus pyogenes Subcutaneous for C=CCCCCCCCCC(=O)N[C@@H](Cc1c[nH]c2ccccc12)C(=O)N[C@@H](CC(N)=O)C(=O)N[C@@H](CC(=O)O)C(=O)N[C@@H]1C(=O)NCC(=O)N[C@@H](CCCN)C(=O)N[C@@H](CC(=O)O)C(=O)N[C@H](C)C(=O)N[C@@H](CC(=O)O)C(=O)NCC(=O)N[C@H](CO)C(=O)N[C@@H]([C@H](C)CC(=O)O)C(=O)N[C@@H](CC(=O)c2ccccc2N)C(=O)O[C@@H]1C [Compound 11] .
Key: 0.068

Exercise: Fill in the blank: the reported ED50 Streptococcus pyogenes Subcutaneous of CCCCCCCCCCCCC(=O)N[C@@H](Cc1c[nH]c2ccccc12)C(=O)N[C@@H](CC(N)=O)C(=O)N[C@@H](CC(=O)O)C(=O)N[C@@H]1C(=O)NCC(=O)N[C@@H](CCCN)C(=O)N[C@@H](CC(=O)O)C(=O)N[C@H](C)C(=O)N[C@@H](CC(=O)O)C(=O)NCC(=O)N[C@H](CO)C(=O)N[C@@H]([C@H](C)CC(=O)O)C(=O)N[C@@H](CC(=O)c2ccccc2N)C(=O)O[C@@H]1C [Compound 7] is ____.
Key: 0.046

Exercise: # input compound: CCCCCCCCCCCCCCCC(=O)N[C@@H](Cc1c[nH]c2ccccc12)C(=O)N[C@@H](CC(N)=O)C(=O)N[C@@H](CC(=O)O)C(=O)N[C@@H]1C(=O)NCC(=O)N[C@@H](CCCN)C(=O)N[C@@H](CC(=O)O)C(=O)N[C@H](C)C(=O)N[C@@H](CC(=O)O)C(=O)NCC(=O)N[C@H](CO)C(=O)N[C@@H]([C@H](C)CC(=O)O)C(=O)N[C@@H](CC(=O)c2ccccc2N)C(=O)O[C@@H]1C [Compound 10] ; wanted: its ED50 Streptococcus pyogenes Subcutaneous
Key: 0.18

Exercise: Looking for the measured ED50 Streptococcus pyogenes Subcutaneous of CCCCCCCCCCC(=O)N[C@@H](Cc1c[nH]c2ccccc12)C(=O)N[C@@H](CC(N)=O)C(=O)N[C@@H](CC(=O)O)C(=O)N[C@@H]1C(=O)NCC(=O)N[C@@H](CCCN)C(=O)N[C@@H](CC(=O)O)C(=O)N[C@H](C)C(=O)N[C@@H](CC(=O)O)C(=O)NCC(=O)N[C@H](CO)C(=O)N[C@@H]([C@H](C)CC(=O)O)C(=O)N[C@@H](CC(=O)c2ccccc2N)C(=O)O[C@@H]1C [Compound 5] , can you help?
Key: 0.13

Further cases:
Exercise: If you can, please state the reported ED50 Streptococcus pyogenes Subcutaneous value of CCCCCCCCCCCC(=O)N[C@@H](Cc1c[nH]c2ccccc12)C(=O)N[C@@H](CC(N)=O)C(=O)N[C@@H](CC(=O)O)C(=O)N[C@@H]1C(=O)NCC(=O)N[C@@H](CCCN)C(=O)N[C@@H](CC(=O)O)C(=O)N[C@H](C)C(=O)N[C@@H](CC(=O)O)C(=O)NCC(=O)N[C@H](CO)C(=O)N[C@@H]([C@H](C)CC(=O)O)C(=O)N[C@@H](CC(=O)c2ccccc2N)C(=O)O[C@@H]1C [Compound 6] .
Key: 0.05

Exercise: Tell me the measured ED50 Streptococcus pyogenes Subcutaneous of CCC(C)CCCCCCC(=O)N[C@@H](Cc1c[nH]c2ccccc12)C(=O)N[C@@H](CC(N)=O)C(=O)N[C@@H](CC(=O)O)C(=O)N[C@@H]1C(=O)NCC(=O)N[C@@H](CCCNC(=O)CCC(=O)O)C(=O)N[C@@H](CC(=O)O)C(=O)N[C@H](C)C(=O)N[C@@H](CC(=O)O)C(=O)NCC(=O)N[C@H](CO)C(=O)N[C@@H]([C@H](C)CC(=O)O)C(=O)N[C@@H](CC(=O)c2ccccc2N)C(=O)O[C@@H]1C (some centres unmarked) [Compound 15] , please.
Key: 1.4

Exercise: What value of ED50 Streptococcus pyogenes Subcutaneous has been recorded for this entry: CCCCC=CCCCCCCCC(=O)N[C@@H](Cc1c[nH]c2ccccc12)C(=O)N[C@@H](CC(N)=O)C(=O)N[C@@H](CC(=O)O)C(=O)N[C@@H]1C(=O)NCC(=O)N[C@@H](CCCN)C(=O)N[C@@H](CC(=O)O)C(=O)N[C@H](C)C(=O)N[C@@H](CC(=O)O)C(=O)NCC(=O)N[C@H](CO)C(=O)N[C@@H]([C@H](C)CC(=O)O)C(=O)N[C@@H](CC(=O)c2ccccc2N)C(=O)O[C@@H]1C [Compound 12]
Key: 0.134

Exercise: Query: ED50 Streptococcus pyogenes Subcutaneous; subject: CCCCCCCCCCC(=O)NCCC[C@@H]1NC(=O)CNC(=O)[C@@H](NC(=O)[C@H](CC(=O)O)NC(=O)[C@H](CC(N)=O)NC(=O)[C@H](Cc2c[nH]c3ccccc23)NC(=O)CCCCCCCCCC)[C@@H](C)OC(=O)[C@H](CC(=O)c2ccccc2N)NC(=O)[C@H]([C@H](C)CC(=O)O)NC(=O)[C@@H](CO)NC(=O)CNC(=O)[C@H](CC(=O)O)NC(=O)[C@@H](C)NC(=O)[C@H](CC(=O)O)NC1=O [Compound 17]
Key: 2.85
